From: patent US20250145566A1

Listed next: entries and their corresponding Ki.
Target: 5-HT2A receptor (Homo sapiens, UniProt P28223)
Construct: host or cells: HEK293 (ATCC CRL-1573), transient, membranes
Sequence (P28223 whole entry): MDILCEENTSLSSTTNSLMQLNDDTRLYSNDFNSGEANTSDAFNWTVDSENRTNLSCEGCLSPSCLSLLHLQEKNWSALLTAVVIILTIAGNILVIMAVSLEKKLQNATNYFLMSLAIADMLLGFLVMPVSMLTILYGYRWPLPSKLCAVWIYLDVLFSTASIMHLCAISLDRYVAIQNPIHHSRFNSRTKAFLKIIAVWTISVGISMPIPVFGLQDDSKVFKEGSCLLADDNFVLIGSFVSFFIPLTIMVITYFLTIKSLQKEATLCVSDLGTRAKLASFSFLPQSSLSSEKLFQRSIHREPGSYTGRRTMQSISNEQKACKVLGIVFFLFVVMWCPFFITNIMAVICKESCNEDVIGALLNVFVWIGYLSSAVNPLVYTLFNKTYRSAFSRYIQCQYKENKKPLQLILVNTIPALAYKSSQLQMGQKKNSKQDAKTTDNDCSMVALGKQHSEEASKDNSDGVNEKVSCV
Experiment: 5-HT2A radioligand ([3H]LSD) competition binding
Respond with the bare value in nM.

In the examples that follow, each entry is paired with its recorded Ki.
> print(dat)
                                   compound  readout.name  assay.result
1  [2H]C([2H])([2H])Oc1cc(SC)c(OC([2H])([2H])[2H])cc1C[C@@H](C)N [IV-9 (R)]            Ki            26
2              COc1cc(CCN)cc(OC)c1SC(F)(F)F            Ki           1.6
3  COc1cc(SC)c(OC)cc1C[C@@H](C)N [Reference Compound 2 (R)]            Ki             7
4  COc1cc(C(F)(F)F)c(OC)cc1CCN [Reference Compound 4, reference compound]            Ki           3.4
5  [2H]C([2H])([2H])Oc1cc(SC)c(OC([2H])([2H])[2H])cc1C[C@H](C)N [IV-9 (S)]            Ki            56

Please examine the following record next.
Short answer for COc1cc(SC)c(OC)cc1C[C@H](C)N [Reference Compound 2 (S)] : Ki was 18
